All figures here come from patent US9999859B2.

# Test method notes: PAMPA permeability with subject invention membrane
# Format: in vitro ADME
# Study conditions: PAMPA; PBS pH 7.4, room temperature, no agitation, 5 hours; read-out: Pe Subject Invention Membrane Results
Metric: Papp at 5 h (×10⁻⁶ cm/s)
Give bare numbers, in ×10⁻⁶ cm/s.

Reference set, count: 4
Compound: O=C(O)c1cc(/N=N/c2ccc(S(=O)(=O)Nc3ccccn3)cc2)ccc1O
Unit name: ×10⁻⁶ cm/s
Measured: 0.16

Compound: NS(=O)(=O)c1cc2c(cc1Cl)NCNS2(=O)=O [hydrochlorothiazide]
Unit name: ×10⁻⁶ cm/s
Measured: 0.09

Compound: CC(C(=O)O)c1cccc(C(=O)c2ccccc2)c1 (centres unmarked)
Unit name: ×10⁻⁶ cm/s
Measured: 3.1

Compound: Nc1nc2c(ncn2COCCO)c(=O)[nH]1
Unit name: ×10⁻⁶ cm/s
Measured: 0.1

As a next step, examine the compound that follows.
input: Reported Papp at 5 h for CC(C)NCC(O)COc1cccc2[nH]ccc12 (centres unmarked) : what is it?
output: 2.64

###

Hi there, I'd appreciate the recorded Papp at 5 h for every entry that follows.
# Test method notes: PAMPA permeability with subject invention membrane
# Assay type: in vitro ADME
# Study conditions: PAMPA; PBS pH 7.4, room temperature, no agitation, 5 hours; read-out: Pe Subject Invention Membrane Results
Answers are plain numbers, in ×10⁻⁶ cm/s.

Reference set, count: 4
Compound: O=C1NC(=O)C(c2ccccc2)(c2ccccc2)N1
Measured: 5.73

Compound: NC(N)=Nc1nc(CSCCC(N)=NS(N)(=O)=O)cs1
Measured: 0.04

Compound: CCN1CCCC1CNC(=O)c1cc(S(N)(=O)=O)ccc1OC (centres unmarked) [sulpiride]
Measured: 0.18

Compound: CC(C)Cc1ccc(C(C)C(=O)O)cc1 (centres unmarked)
Measured: 4.39

input: Reported Papp at 5 h for CC(C)(C)NCC(O)c1cc(O)cc(O)c1 (centres unmarked) : what is it?
output: 0.46
